Quick reference for inhibition at 100 µM among some compounds
# Tested Target: AM2 S31 (wild-type serine at position 31 in the M2 protein), influenza virus A/Udorn/72 (Influenza A virus, UniProt P0DOF5)
# Sequence (P0DOF5 whole entry, looked up): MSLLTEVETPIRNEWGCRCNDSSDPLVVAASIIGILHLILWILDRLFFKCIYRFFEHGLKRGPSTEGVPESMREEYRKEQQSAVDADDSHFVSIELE
# Experiment: cell-based
# Setup Conditions: Table 3; 100 uM; Xenopus oocytes, pH 5.5, -20 mV; read-out: S31 OOcyte Inhibition at 100 uM (%)

{"Compound": "CC(NC12CC3CC(CC(C3)C1)C2)c1ccc(-c2ccccc2)cc1 (stereo not drawn) [Example 4b]", "inhibition at 100 µM": "31 to 95%"}
{"Compound": "Brc1ccccc1-c1cc(CNC23CC4CC(CC(C4)C2)C3)no1 [Example 43b]", "inhibition at 100 µM": "0 to 30%"}
{"Compound": "FC(F)(F)Oc1ccc(-c2cc(CNC34CC5CC(CC(C5)C3)C4)no2)cc1 [Example 36b]", "inhibition at 100 µM": "0 to 30%"}
{"Compound": "CCCc1cc(CNC23CC4CC(CC(C4)C2)C3)no1 [Example 26b]", "inhibition at 100 µM": "0 to 30%"}
{"Compound": "CC(C)c1cc(CNC23CC4CC(CC(O)(C4)C2)C3)no1 [Example 85b]", "inhibition at 100 µM": "0 to 30%"}
{"Compound": "CCCSc1ncc(CNC23CC4CC(CC(C4)C2)C3)cn1 [Example 62b]", "inhibition at 100 µM": "0 to 30%"}

###

# Tested Target: AM2 S31 (wild-type serine at position 31 in the M2 protein), influenza virus A/Udorn/72 (Influenza A virus, UniProt P0DOF5)
# Experiment: cell-based
# Setup Conditions: 100 uM; Xenopus oocytes; activity range class; read-out: S31 OOcyte Inhibition at 100 uM (%)
Quick reference for inhibition at 100 µM among some compounds
Quantity Name: inhibition at 100 µM

{"Compound": "COc1ccc(-c2nnc(CNC34CC5CC(CC(C5)C3)C4)o2)cc1 [Example 127a]", "Result": "0 to 30%"}
{"Compound": "c1scc2[nH]c(CNC34CC5CC(CC(C5)C3)C4)nc12 [Example 171a]", "Result": "0 to 30%"}
{"Compound": "Clc1ccc(-c2cc(CNC34CC5CC(CC(C5)C3)C4)no2)cc1 [Example 119a]", "Result": "0 to 30%"}
{"Compound": "CCc1nc(CNC23CC4CC(CC(C4)C2)C3)no1 [Example 165a]", "Result": "31 to 95%"}
{"Compound": "OC12CC3CC(C1)CC(NCc1cc4sccc4s1)(C3)C2 [Example 192a]", "Result": "0 to 30%"}
{"Compound": "Cc1ccc(-c2ccc(CNC34CC5CC(CC(C5)C3)C4)cc2)o1.Cl [Example 32a, hydrochloride]", "Result": "0 to 30%"}
{"Compound": "Cc1c(CNC23CC4CC(CC(C4)C2)C3)sc2ccccc12 [Example 177a]", "Result": "31 to 95%"}
{"Compound": "Cc1ccc(-c2nc(CNC34CC5CC(CC(C5)C3)C4)no2)cc1 [Example 128a]", "Result": "0 to 30%"}
{"Compound": "CC(NC12CC3CC(CC(C3)C1)C2)c1ccc(C#N)s1 (centres unmarked) [Example 92a]", "Result": "31 to 95%"}
{"Compound": "CC(C)(C)c1ccc(-c2noc(CNC34CC5CC(CC(C5)C3)C4)n2)cc1 [Example 124a]", "Result": "0 to 30%"}
{"Compound": "Clc1ccc2[nH]c(CNC34CC5CC(CC(C5)C3)C4)nc2c1 [Example 181a]", "Result": "0 to 30%"}
{"Compound": "Cc1noc(C)c1-c1ccc(CNC23CC4CC(CC(C4)C2)C3)cc1 [Example 33a]", "Result": "0 to 30%"}
{"Compound": "c1c[nH]c(CNC23CC4CC(CC(C4)C2)C3)c1 [Example 72a]", "Result": "31 to 95%"}
{"Compound": "Brc1ccc(-c2cc(CNC34CC5CC(CC(C5)C3)C4)on2)cc1 [Example 117a]", "Result": "0 to 30%"}
{"Compound": "C(=C\\c1ccccc1)/CNC12CC3CC(CC(C3)C1)C2 [Example 199a, N-cinnamyladamantan-1-amine]", "Result": "0 to 30%"}
{"Compound": "COc1ccccc1COc1ccc(CNC23CC4CC(CC(C4)C2)C3)cc1 [Example 15a]", "Result": "0 to 30%"}
{"Compound": "Brc1ccc(CNC23CC4CC(CC(C4)C2)C3)o1 [Example 87a]", "Result": "31 to 95%"}
{"Compound": "FC(F)(F)c1cccc(-c2nc(CNC34CC5CC(CC(C5)C3)C4)no2)c1 [Example 125a]", "Result": "0 to 30%"}
{"Compound": "O=C1CCCN1c1ccc(CNC23CC4CC(CC(C4)C2)C3)cc1 [Example 45a]", "Result": "0 to 30%"}
{"Compound": "Oc1cc(Br)ccc1CNC12CC3CC(CC(C3)C1)C2 [Example 50a]", "Result": "31 to 95%"}
{"Compound": "Cc1nc(-c2ccc(CNC34CC5CC(CC(C5)C3)C4)s2)cs1 [Example 156a]", "Result": "0 to 30%"}
{"Compound": "OC12CC3CC(C1)CC(NCc1ccc(-c4ccccc4)s1)(C3)C2 [Example 191a]", "Result": "0 to 30%"}
{"Compound": "c1csc(-c2ccc(CNC34CC5CC(CC(C5)C3)C4)o2)c1 [Example 138a]", "Result": "0 to 30%"}
{"Compound": "O=c1[nH]cc(CNC23CC4CC(CC(C4)C2)C3)c(=O)[nH]1 [Example 169a]", "Result": "0 to 30%"}
{"Compound": "Fc1ccc(-c2cc(CNC34CC5CC(CC(C5)C3)C4)no2)cc1 [Example 118a]", "Result": "0 to 30%"}
{"Compound": "Clc1ccc(/C=C/CNC23CC4CC(CC(C4)C2)C3)cc1 [Example 200a]", "Result": "0 to 30%"}
{"Compound": "c1c(CNC23CC4CC(CC(C4)C2)C3)noc1C1CC1 [Example 107a]", "Result": "0 to 30%"}
{"Compound": "c1cc2cn[nH]c2cc1CNC12CC3CC(CC(C3)C1)C2 [Example 43a]", "Result": "31 to 95%"}
{"Compound": "Cc1ccc(CNC23CC4CC(CC(C4)C2)C3)s1 [Example 78a]", "Result": "31 to 95%"}
{"Compound": "Brc1cnc(CNC23CC4CC(CC(C4)C2)C3)s1 [Example 86a]", "Result": "0 to 30%"}
{"Compound": "COc1ccc2cc(CNC34CC5CC(CC(C5)C3)C4)ccc2c1 [Example 40a]", "Result": "0 to 30%"}
{"Compound": "CSc1ccc(-c2ccc(CNC34CC5CC(CC(C5)C3)C4)s2)cc1 [Example 112a]", "Result": "0 to 30%"}
{"Compound": "c1csc(-c2ccc(CNC3C4CC5CC(C4)CC3C5)s2)c1 (centres unmarked) [Example 205a]", "Result": "0 to 30%"}
{"Compound": "Clc1cc2cc(CNC34CC5CC(CC(C5)C3)C4)sc2s1 [Example 173a]", "Result": "31 to 95%"}
{"Compound": "c1csc(-c2nnc(CNC34CC5CC(CC(C5)C3)C4)s2)c1 [Example 151a]", "Result": "0 to 30%"}
{"Compound": "c1c(CNC23CC4CC(CC(C4)C2)C3)noc1CN1CCOCC1 [Example 106a]", "Result": "0 to 30%"}
{"Compound": "Cc1cccc2nc(CNC34CC5CC(CC(C5)C3)C4)[nH]c12 [Example 184a]", "Result": "0 to 30%"}
{"Compound": "Cc1nc(CNC23CC4CC(CC(C4)C2)C3)no1 [Example 96a]", "Result": "31 to 95%"}
